Data origin, for the record: patent US8933107B2

Please provide measured chromatographic logP for the entries that follow.
# experimental_details: physchem
# condition_description: reversed-phase HPLC column (C 18)
Numbers only.

Some molecules with known chromatographic logP results, for comparison:
{"columns": ["smiles_repr", "chromatographic logP"],
 "data": [
  ["CCN(C)/C=N/c1cc(C)c(Oc2nc(C#N)c(Cl)s2)cc1C", 1.74],
  ["CCN(C)/C=N/c1cc(C)c(Oc2nc(C(C)(C)C)c(Cl)s2)cc1C", 2.76],
  ["CCN(C)/C=N/c1ccc(Oc2nc(C(C)(C)C)ns2)cc1C", 2.04],
  ["CCN(C)/C=N/c1cc(C)c(Oc2nc(Cl)c(Cl)s2)cc1C", 2.12],
  ["CCN(C)C=Nc1cc(C)c(Oc2nc(C=NOC(C)(C)C)c(Cl)s2)cc1C", 2.65],
  ["Cc1cc(Oc2nc(Cl)cs2)c(C)cc1/N=C/N(C)C(C)C", 1.7]
]}

Provide chromatographic logP values for the following items, in order.
1. Cc1cc(Oc2nnc(C(C)C)s2)c(C)cc1/N=C/N(C)C(C)C
2. Cc1cc(Oc2nc(Cl)c(C)s2)c(C)cc1/N=C/N(C)C
3. CCN(C)/C=N/c1cc(C)c(Oc2nc(C)c(C)s2)cc1C
4. CCN(C)/C=N/c1cc(C)c(Oc2nc(C)c(C(C)=O)s2)cc1C
5. Cc1cc(Oc2nc(C(C)(C)C)c(Cl)s2)c(C)cc1/N=C/N(C)C(C)C

1. 1.69
2. 1.69
3. 1.87
4. 1.5
5. 2.79

====

# experimental_details: physchem
# condition_description: reversed-phase HPLC column (C 18)
quantity_kind: chromatographic logP
Numbers only.

Some compounds with known chromatographic logP results, for comparison:
{"columns": ["compound", "chromatographic logP"],
 "data": [
  ["Cc1cc(Oc2nc(Cl)c(Cl)s2)c(C)cc1/N=C/N(C)C(C)C [Compound 1.3]", 2.18],
  ["Cc1cc(Oc2nc(Cl)c(C)s2)c(C)cc1/N=C/N(C)C(C)C [Compound 1.23]", 1.94],
  ["CCN(C)/C=N/c1cc(C)c(Oc2nc(C)c(Cl)s2)cc1C [Compound 1.12]", 1.98],
  ["CCN(C)/C=N/c1ccc(Oc2nc(C)c(C)s2)cc1C [Compound 1.33]", 1.65],
  ["CCCc1sc(Oc2cc(C)c(/N=C/N(C)C(C)C)cc2C)nc1C [Compound 1.35]", 2.29]
]}

Provide chromatographic logP values for the following items, in order.
1. CCN(C)/C=N/c1cc(C)c(Oc2nc(C(C)(C)C)cs2)cc1C [Compound 1.75]
2. CCN(C)/C=N/c1cc(C)c(Oc2nc(Cl)cs2)cc1C [Compound 1.18]
3. CCN(C)/C=N/c1cc(C)c(Oc2nc(C(C)(C)C)c(Br)s2)cc1C [Compound 1.71]
4. CCN(C)/C=N/c1cc(C)c(Oc2nc(Cl)ns2)cc1C [Compound 2.5]

2.26
1.6
2.78
1.56

====

# experimental_details: physchem
# condition_description: reversed-phase HPLC column (C 18)
quantity_kind: chromatographic logP
One number for each entry.

Some compounds with known chromatographic logP results, for comparison:
{"columns": ["compound", "measured"],
 "data": [
  ["CCN(C)/C=N/c1cc(C)c(Oc2nnc(C(F)(F)F)s2)cc1C [Compound 3.2]", 1.78],
  ["Cc1cc(Oc2nc(C)c(Cl)s2)c(C)cc1/N=C/N(C)C(C)C [Compound 1.13]", 2.14],
  ["CCN(C)/C=N/c1cc(C)c(Oc2nc(Cl)c(Br)s2)cc1C [Compound 1.6]", 2],
  ["CCN(C)/C=N/c1cc(C)c(Oc2nc(C(C)C)c(Cl)s2)cc1C [Compound 1.20]", 2.52]
]}

Kindly consider the entry below.
Note down chromatographic logP recorded for CCN(C)/C=N/c1cc(C)c(Oc2nc(C=O)c(Cl)s2)cc1C [Compound 1.42]
1.46

====

# experimental_details: physchem
# condition_description: reversed-phase HPLC column (C 18)
Label scheme for chromatographic logP: lower than 2 is not met, 2 and above is met.

# example entries with known answers
{"columns": ["compound", "discrete_label"],
 "data": [
  ["CSc1nnc(Oc2cc(C)c(/N=C/N(C)C(C)C)cc2C)s1 [Compound 3.18]", "not met"],
  ["Cc1cc(Oc2nc(C(C)C)c(Cl)s2)c(C)cc1/N=C/N(C)C(C)C [Compound 1.9]", "met"],
  ["Cc1cc(Oc2nc(Cl)c(Br)s2)c(C)cc1/N=C/N(C)C(C)C [Compound 1.11]", "met"],
  ["Cc1cc(Oc2nc(Cl)ns2)c(C)cc1/N=C/N(C)C(C)C [Compound 2.6]", "not met"]
]}

Reported chromatographic logP reaches at least 2 for CCN(C)/C=N/c1cc(C)c(Oc2nc(Cl)c(C(C)(C)C)s2)cc1C [Compound 1.73] ?
met

Reported chromatographic logP reaches at least 2 for CCN(C)/C=N/c1cc(C)c(Oc2nc(Cl)c(C)s2)cc1C [Compound 1.17] ?
not met

Reported chromatographic logP reaches at least 2 for CCN(C)/C=N/c1cc(C)c(Oc2nnc(SC)s2)cc1C [Compound 3.21] ?
not met

====

# experimental_details: physchem
# condition_description: reversed-phase HPLC column (C 18), pH 2.3
quantity_kind: chromatographic logP
Numbers only.

Provide chromatographic logP values for the following items, in order.
1. CCN(C)/C=N/c1cc(C)c(Oc2nc(Cl)c(Cl)s2)cc1C
2. CCN(C)C=Nc1cc(C)c(Oc2nc(C=NOC(C)(C)C)c(Cl)s2)cc1C

1. 2.04
2. 2.65

Provide chromatographic logP values for the following items, in order.
1. CCN(C)/C=N/c1cc(C)c(Oc2nc(C=O)c(Cl)s2)cc1C
2. Cc1cc(Oc2nc(Cl)c(Cl)s2)c(C)cc1N
3. CCN(C)/C=N/c1cc(C)c(O)cc1C

1: 1.51; 2: 3.4; 3: 0.41

====

# experimental_details: physchem
# condition_description: reversed-phase HPLC column (C 18)
quantity_kind: chromatographic logP
Give bare numbers.

{"columns": ["compound", "chromatographic logP"],
 "data": [
  ["Cc1cc(Oc2nc(C)c(C)s2)c(C)cc1/N=C/N(C)C(C)C [Compound 1.37]", 1.98],
  ["CCN(C)/C=N/c1cc(C)c(Oc2nnc(-c3ccccc3)s2)cc1C [Compound 3.3]", 1.93],
  ["CCN(C)/C=N/c1cc(C)c(Oc2nnc(C(C)C)s2)cc1C [Compound 3.22]", 1.61],
  ["CCN(C)/C=N/c1cc(C)c(Oc2nc(Cl)c(C=O)s2)cc1C [Compound 1.62]", 1.68],
  ["Cc1cc(Oc2nc(C(F)(F)F)c(Cl)s2)c(C)cc1/N=C/N(C)C(C)C [Compound 1.10]", 2.29],
  ["CCN(C)/C=N/c1cc(C)c(Oc2ncc(C(C)(C)C)s2)cc1C [Compound 1.74]", 2.18]
]}

Note down chromatographic logP recorded for CCN(C)/C=N/c1cc(C)c(Oc2nc(C(F)(F)F)c(Cl)s2)cc1C [Compound 1.5]
2.15

====

Please provide measured chromatographic logP for the entries that follow.
# experimental_details: physchem
# condition_description: reversed-phase HPLC column (C 18)
Answers are plain numbers.

Some compounds with known chromatographic logP results, for comparison:
{"columns": ["smiles_repr", "measured"],
 "data": [
  ["Cc1cc(Oc2nc(Cl)c(Cl)s2)ccc1/N=C/N(C)C(C)C", 2.09],
  ["CCN(C)/C=N/c1ccc(Oc2nc(C(C)C)ns2)cc1C", 1.57],
  ["Cc1cc(Oc2nc(C(C)C)ns2)ccc1/N=C/N(C)C(C)C", 1.77],
  ["Cc1cc(Oc2nc(C(C)C)ns2)c(C)cc1/N=C/N(C)C(C)C", 1.89],
  ["Cc1cc(Oc2nc(C)c(C)s2)ccc1/N=C/N(C)C(C)C", 1.66]
]}

Provide chromatographic logP values for the following items, in order.
1. CCCc1sc(Oc2cc(C)c(/N=C/N(C)CC)cc2C)nc1C
2. Cc1cc(Oc2nnc(C(F)(F)F)s2)c(C)cc1/N=C/N(C)C(C)C
3. Cc1cc(Oc2nc(-c3ccccc3)cs2)c(C)cc1/N=C/N(C)C(C)C

2.22
1.84
2.25

Provide chromatographic logP values for the following items, in order.
1. CCN(C)/C=N/c1cc(C)c(Oc2nc(C(C)C)ns2)cc1C
2. CCN(C)/C=N/c1cc(C)c(Oc2nc(-c3ccccc3)cs2)cc1C

[1.74, 2.18]
